- target-under-test: Phospho-EGFR (Tyr1068) in A431 cells (Homo sapiens, UniProt P00533)
- Construct: endogenous in cells
- Sequence (P00533 25-1210): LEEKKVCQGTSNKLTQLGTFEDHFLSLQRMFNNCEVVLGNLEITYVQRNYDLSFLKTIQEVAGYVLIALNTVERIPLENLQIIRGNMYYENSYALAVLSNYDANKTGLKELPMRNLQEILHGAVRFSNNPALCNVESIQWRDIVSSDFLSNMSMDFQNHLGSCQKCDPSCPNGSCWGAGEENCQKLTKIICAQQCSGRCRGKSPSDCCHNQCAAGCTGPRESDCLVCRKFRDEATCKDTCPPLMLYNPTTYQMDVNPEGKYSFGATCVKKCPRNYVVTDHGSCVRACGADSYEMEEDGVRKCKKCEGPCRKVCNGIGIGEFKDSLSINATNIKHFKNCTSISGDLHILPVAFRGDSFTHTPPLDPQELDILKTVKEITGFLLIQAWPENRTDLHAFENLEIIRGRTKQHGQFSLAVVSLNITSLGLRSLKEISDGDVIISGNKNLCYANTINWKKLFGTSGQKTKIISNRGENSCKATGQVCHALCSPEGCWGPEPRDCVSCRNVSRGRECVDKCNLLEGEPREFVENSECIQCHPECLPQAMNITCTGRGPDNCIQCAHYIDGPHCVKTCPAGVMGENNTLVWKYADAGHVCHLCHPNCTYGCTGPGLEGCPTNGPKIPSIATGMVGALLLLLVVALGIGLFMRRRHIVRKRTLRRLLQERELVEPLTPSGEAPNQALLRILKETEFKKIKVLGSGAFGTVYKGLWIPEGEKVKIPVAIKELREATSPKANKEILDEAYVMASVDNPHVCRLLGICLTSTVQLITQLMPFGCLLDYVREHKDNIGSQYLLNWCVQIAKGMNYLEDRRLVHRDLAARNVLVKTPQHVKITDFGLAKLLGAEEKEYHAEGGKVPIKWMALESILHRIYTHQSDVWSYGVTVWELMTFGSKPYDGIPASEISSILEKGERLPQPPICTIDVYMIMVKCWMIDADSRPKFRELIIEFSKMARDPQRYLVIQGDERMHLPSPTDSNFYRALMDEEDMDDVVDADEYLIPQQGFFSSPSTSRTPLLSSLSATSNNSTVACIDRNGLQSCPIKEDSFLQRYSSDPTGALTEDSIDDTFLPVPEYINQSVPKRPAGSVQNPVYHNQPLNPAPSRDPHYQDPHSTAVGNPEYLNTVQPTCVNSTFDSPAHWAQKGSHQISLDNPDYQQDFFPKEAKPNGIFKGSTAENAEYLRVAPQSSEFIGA
- experiment-notes: HTRF pEGFR/total EGFR assay in A431 cells (EGF stimulated)
- conditions: compound 2.5 hours then 100 ng/ml EGF 30 mins, ratio pEGFR/total EGFR
pIC50: −log10 of the molar value.
Kindly supply the reported pIC50 values for the records listed here.

Ask | Indicate the recorded pIC50 value for this compound: C#Cc1cc(NC(=O)OC2CCCCC2)nc2nc(Nc3ccc(N4CCN(C)CC4)cc3)ncc12 [Example 66]
Reply | < 5.52

Ask | Indicate the recorded pIC50 value for this compound: C#Cc1cc(Nc2ccccc2)nc2nc(Nc3ccc(N(C)CCN(C)C)cc3)ncc12 [Example 25]
Reply | < 5.52

Ask | Indicate the recorded pIC50 value for this compound: C#Cc1cc(NC(=O)NCc2ccnn2C)nc2nc(Nc3ccc(N4CCN(C)CC4)cc3)ncc12 [Example 48]
Reply | < 5.52

Ask | Indicate the recorded pIC50 value for this compound: C#Cc1cc(NC(=O)NC2CCCC2)nc2nc(Nc3ccc(N(C)C(C)=O)cc3)ncc12 [Example 77]
Reply | < 5.52

Ask | Indicate the recorded pIC50 value for this compound: C#Cc1cc(NC(=O)NCc2ccccn2)nc2nc(Nc3ccc(N4CCN(C)CC4)cc3)ncc12 [Example 49]
Reply | < 5.52

Ask | Indicate the recorded pIC50 value for this compound: C#Cc1cc(NC(=O)NC2CN(S(C)(=O)=O)C2)nc2nc(Nc3ccc(N4CCN(C)CC4)cc3)ncc12 [Example 57]
Reply | < 5.52

Ask | Indicate the recorded pIC50 value for this compound: C#Cc1cc(N2C(=O)N(C)CC23CCCC3)nc2nc(Nc3ccc(OCCN(C)C)cc3)ncc12 [Example 107]
Reply | < 5.52

Ask | Indicate the recorded pIC50 value for this compound: C#Cc1cc(N2C(=O)NCC23CCCC3)nc2nc(Nc3ccc(S(=O)(=O)N(C)C)cc3)ncc12 [Example 97]
Reply | < 5.52

Ask | Indicate the recorded pIC50 value for this compound: C#Cc1cc(NC(=O)NCc2cncn2C)nc2nc(Nc3ccc(N4CCN(C)CC4)cc3)ncc12 [Example 46]
Reply | < 5.52

Ask | Indicate the recorded pIC50 value for this compound: C#Cc1cc(NC(=O)NC2CCCC2)nc2nc(Nc3ccccc3N3CCC(CS(C)(=O)=O)CC3)ncc12 [Example 90]
Reply | < 5.52

Ask | Indicate the recorded pIC50 value for this compound: C#Cc1cc(NC(=O)NC2CCC2)nc2nc(Nc3ccc(N4CCN(C)CC4)cc3)ncc12 [Example 41]
Reply | 5.52 to 6.00

Ask | Indicate the recorded pIC50 value for this compound: C#Cc1cc(NC(=O)N2CCCC2)nc2nc(Nc3ccc(N4CCN(C)CC4)cc3)ncc12 [Example 56]
Reply | < 5.52

Ask | Indicate the recorded pIC50 value for this compound: C#Cc1cc(N(C)C(=O)NC2CCCC2)nc2nc(Nc3ccc(N4CCN(C)CC4)cc3)ncc12 [Example 73]
Reply | < 5.52

Ask | Indicate the recorded pIC50 value for this compound: C#Cc1cc(NC(=O)NC2CCCC2)nc2nc(Nc3cccc(CN4CCC(CS(C)(=O)=O)CC4)c3)ncc12 [Example 87]
Reply | 5.52 to 6.00

Ask | Indicate the recorded pIC50 value for this compound: C#Cc1cc(N2C(=O)N(C)CC2C(C)C)nc2nc(Nc3ccc(N4CCN(C)CC4)cc3)ncc12 (stereo not shown) [Example 102]
Reply | < 5.52

Ask | Indicate the recorded pIC50 value for this compound: C#Cc1cc(NC(=O)NC2CCCC2)nc2nc(Nc3cccc4c3CCN(C)C4)ncc12 [Example 88]
Reply | < 5.52
